All values here come from Sander's compilation of Henry's law constants (doi:10.1021/je0000266).

Task for the reader: assign each of the following molecules its reported Henry solubility constant Hcp.
Method: Henry solubility constant Hcp at 298.15 K (mol/(m3 Pa))
Particulars: reference: Bamford et al. (2000)
One number for each entry.

Example molecules with recorded Henry solubility constant Hcp:
Clc1cc(Cl)c(-c2c(Cl)c(Cl)cc(Cl)c2Cl)cc1Cl [2,2',3,4',5,5',6-heptachlorobiphenyl]: 0.016
Clc1cc(Cl)c(-c2c(Cl)c(Cl)cc(Cl)c2Cl)c(Cl)c1 [2,2',3,4',5,6,6'-heptachlorobiphenyl]: 0.0088
Clc1ccc(Cl)c(-c2cccc(Cl)c2Cl)c1 [2,2',3,5'-tetrachlorobiphenyl]: 0.036

Q: Recorded Henry solubility constant Hcp for Clc1ccc(-c2ccc(Cl)c(Cl)c2Cl)cc1Cl [2,3,3',4,4'-pentachlorobiphenyl] , please?
A: 0.03

* * *

Record form. Attribute: Henry solubility constant Hcp. Fill in for each entry.
Method: Henry solubility constant Hcp at 298.15 K (mol/(m3 Pa))
Particulars: reference: Bamford et al. (2000)

Clc1ccc(Cl)c(-c2cc(Cl)c(Cl)cc2Cl)c1: 0.024
Clc1ccc(Cl)c(-c2ccccc2Cl)c1: 0.039
Clc1ccc(-c2ccc(Cl)c(Cl)c2)cc1Cl: 0.062

Q: # Henry solubility constant Hcp lookup, item Clc1ccc(-c2ccccc2Cl)cc1
A: 0.04

* * *

Method: Henry solubility constant Hcp at 298.15 K (mol/(m3 Pa))
Particulars: reference: Bamford et al. (2000)
Mark Not fulfilled for Henry solubility constant Hcp values under 0.03, and Fulfilled for everything at or above.

Use these answered entries as a reference point.
Clc1ccccc1-c1ccccc1: Fulfilled
Clc1ccc(-c2cc(Cl)c(Cl)c(Cl)c2)cc1Cl: Fulfilled
Clc1cc(Cl)c(-c2c(Cl)c(Cl)cc(Cl)c2Cl)c(Cl)c1Cl: Not fulfilled
Clc1cc(Cl)c(-c2cc(Cl)c(Cl)cc2Cl)c(Cl)c1: Not fulfilled
Clc1cc(Cl)c(-c2cc(Cl)c(Cl)cc2Cl)cc1Cl: Not fulfilled
Clc1cc(Cl)c(-c2ccc(Cl)c(Cl)c2Cl)cc1Cl: Not fulfilled

Q: Textbook exercise: given the entry Clc1ccc(Cl)c(-c2cc(Cl)ccc2Cl)c1 , state whether its Henry solubility constant Hcp is greater than or equal to 0.03.
A: Fulfilled

Q: Check this molecule for Henry solubility constant Hcp at or above 0.03: Clc1ccc(-c2cc(Cl)c(Cl)cc2Cl)cc1Cl
A: Not fulfilled

Q: // inclusive: Henry solubility constant Hcp at least 0.03? input: Clc1ccc(-c2ccc(Cl)c(Cl)c2)c(Cl)c1
A: Not fulfilled

Q: Is Henry solubility constant Hcp for Clc1cc(Cl)c(-c2ccccc2Cl)c(Cl)c1 at or above 0.03?
A: Not fulfilled
